# TGI per entry
tested on: SK-MEL-5 melanoma; experiment: NCI tumour cell line growth inhibition, 48 h

[[record]]
sample_smiles = "O=C(Nc1ccccc1C(=O)NCc1ccccc1)/C(=C/c1ccccc1)NC(=O)c1ccccc1"
test_value = "> 100 µM"

[[record]]
sample_smiles = "CCCCCC[C@H](C)Nc1nc2ccccc2c2occc12"
test_value = "18 µM"

[[record]]
sample_smiles = "O=C(Oc1ccc(CO[N+](=O)[O-])cc1)c1ccccc1"
test_value = "1.73 µM"

[[record]]
sample_smiles = "C/C(=N\\NC(=S)N(C)C)c1cccnn1"
test_value = "> 20.7 µM"

[[record]]
sample_smiles = "Cc1nc2ccc(NC(=O)CCNC(=O)CCCc3ccc(CC(C(=O)O)C(=O)O)cc3)cc2s1"
test_value = "> 100 µM"


Then this compound:
Quick one: TGI for NCCOCCOCCNc1nc(-c2ccc(Cl)cc2)nc(N2CCN(c3ccccn3)CC2)n1 ?
3.19 µM
